Target: Human immunodeficiency virus type 1 reverse transcriptase (Human immunodeficiency virus 1) (UniProt Q72547)
Assay: In vitro for inhibition of HIV-1 reverse transcriptase at 1 uM
Please provide measured inhibition for the entries that follow.

Quickly give me recorded inhibition for CCN1c2ncccc2C(=O)N(C)c2cc([N+](=O)[O-])cnc21
< 35%

Let me know recorded inhibition for CCN1c2cc(-c3cccc(N)c3)cnc2N(C)C(=O)c2cccnc21 , thanks.
< 35%

Name the recorded inhibition of the compound listed here: CCN1c2ncccc2C(=O)N(C)c2nccc(C)c21
< 35%

Identify the reported inhibition for the following entry. CCN1c2cccnc2N(C)C(=O)c2ccc(C)nc21
< 35%

Note down inhibition recorded for CCN1c2ccc([N+](=O)[O-])nc2N(C)C(=O)c2cccnc21
< 35%

Quickly give me recorded inhibition for CCN1c2cc(Br)c(Br)nc2N(C)C(=O)c2cccnc21
< 35%

Give reported inhibition value for CCN1c2cccnc2N(C)C(=O)c2cc(Br)cnc21
< 35%
